The origin of these recorded values is patent US20250090699A1.

// values below are reported IC50
Biological target: mouse FAP (Mus musculus)
Sequence (P97321 26-761): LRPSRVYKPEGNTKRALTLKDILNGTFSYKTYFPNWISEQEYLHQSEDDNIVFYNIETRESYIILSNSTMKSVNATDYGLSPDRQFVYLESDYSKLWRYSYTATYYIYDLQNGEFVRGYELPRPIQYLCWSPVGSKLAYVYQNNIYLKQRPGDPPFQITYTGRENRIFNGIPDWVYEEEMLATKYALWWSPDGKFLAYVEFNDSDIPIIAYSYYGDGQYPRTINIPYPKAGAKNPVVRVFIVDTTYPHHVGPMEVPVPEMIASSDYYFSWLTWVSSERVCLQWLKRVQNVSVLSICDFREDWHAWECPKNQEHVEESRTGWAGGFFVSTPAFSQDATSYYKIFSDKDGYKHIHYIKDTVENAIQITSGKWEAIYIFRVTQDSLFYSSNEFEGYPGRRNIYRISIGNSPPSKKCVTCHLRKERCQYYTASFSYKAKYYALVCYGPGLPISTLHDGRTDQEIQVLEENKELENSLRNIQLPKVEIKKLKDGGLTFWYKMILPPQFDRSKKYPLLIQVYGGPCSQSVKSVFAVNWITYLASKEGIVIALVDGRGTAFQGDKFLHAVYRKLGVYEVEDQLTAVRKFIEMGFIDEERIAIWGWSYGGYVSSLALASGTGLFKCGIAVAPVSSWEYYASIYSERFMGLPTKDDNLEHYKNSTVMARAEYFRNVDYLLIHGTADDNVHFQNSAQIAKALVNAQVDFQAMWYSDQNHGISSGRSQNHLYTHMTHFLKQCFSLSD
Counter-ions that a name gives are not always drawn. Starred links: 1 amine or outer side, 2 acyl side, 3 side chain; linkers in the order of their positions; H or OH if unused. Non-standard residues stand in square brackets, D forms with d. Residues, ends and D or L forms follow the SMILES beside them. Groups on a side chain read outwards from the residue. *: point of attachment. DOTA = O=C(O)CN1CCN(CC(=O)O)CCN(CC(=O)*)CCN(CC(=O)O)CC1; Pyrrolidine(2S-CN,4,4-F2) = N#C[C@@H]1CC(F)(F)CN1*; Phe(4-CH2NH2) = NCc1ccc(C[C@H](N)C(=O)O)cc1; Piperazinyl(4-CH2COOH) = O=C(O)CN1CCN(*)CC1; AEF = NCCOc1ccc(C[C@H](N)C(=O)O)cc1; NMeF = CN[C@@H](Cc1ccccc1)C(=O)O; Ahp(2) = CCCCC[C@H](N)C(=O)O; CO = O=C([*:1])[*:2]
# output: bare number, implied unit nM

Past entries and their recorded results:
{"COMPOUND": "CCCCC[C@@H]1NC(=O)[C@H](Cc2ccc(CNC(=O)CN3CCN(CC(=O)O)CCN(CC(=O)O)CCN(CC(=O)O)CC3)cc2)NC(=O)[C@H](Cc2ccccc2)N(C)C(=O)CNC(=O)CNC(=O)[C@H]2CCCN2C(=O)[C@H](CC(=O)O)NC(=O)[C@H](Cc2ccc(O)cc2)NC(=O)CNC(=O)[C@H](Cc2c[nH]c3ccccc23)NC1=O [Example B17, TFA salt] (cyclo([Ahp(2)]WGYD[dP]GG[NMeF][Phe(4-CH2NH2)](DOTA)))", "IC50 [nM]": 0.158}
{"COMPOUND": "CCCCC[C@@H]1NC(=O)[C@H](Cc2ccc(OCCN)cc2)NC(=O)[C@H](Cc2ccccc2)N(C)C(=O)CNC(=O)[C@H](CCCCNC(=O)N2CCN(CC(=O)O)CC2)NC(=O)[C@H]2CCCN2C(=O)[C@H](CC(=O)O)NC(=O)[C@H](Cc2ccc(O)cc2)NC(=O)CNC(=O)[C@H](Cc2c[nH]c3ccccc23)NC1=O [Example A46, TFA salt] (cyclo([AEF][Ahp(2)]WGYD[dP]K([CO-Piperazinyl(4-CH2COOH)])G[NMeF]))", "IC50 [nM]": 2.8}

*Q* Could you please provide reported IC50 for CN1C(=O)CNC(=O)[C@H](CCCCN)NC(=O)[C@H]2CCCN2C(=O)[C@H](CC(=O)O)NC(=O)[C@H](Cc2ccc(O)cc2)NC(=O)CNC(=O)[C@H](Cc2c[nH]c3ccccc23)NC(=O)[C@H](CCC(=O)N2CC(F)(F)C[C@H]2C#N)NC(=O)[C@H](Cc2ccc(O)cc2)NC(=O)[C@@H]1Cc1ccccc1 [Example A29] (cyclo(KG[NMeF]YE(Pyrrolidine(2S-CN,4,4-F2))WGYD[dP])) ? Thanks!
*A* 0.082

====

Where a name gives a salt, the structure may show the parent alone. Starred links: 1 amine or outer side, 2 acyl side, 3 side chain; linkers in the order of their positions; H or OH if unused. Non-standard residues stand in square brackets, D forms with d. Residues, ends and D or L forms follow the SMILES beside them. Groups on a side chain read outwards from the residue. *: point of attachment. AAZTA5 = O=C(O)CN1CCN(CC(=O)O)CC(CCCCC(=O)*)(N(CC(=O)O)CC(=O)O)C1; Phe(4-CH2NH2) = NCc1ccc(C[C@H](N)C(=O)O)cc1; Piperazinyl(4-CH2COOH) = O=C(O)CN1CCN(*)CC1; AEF = NCCOc1ccc(C[C@H](N)C(=O)O)cc1; NMeF = CN[C@@H](Cc1ccccc1)C(=O)O; Ahp(2) = CCCCC[C@H](N)C(=O)O; hSer = N[C@@H](CCO)C(=O)O; AEEA = NCCOCCOCC(=O)O; CO = O=C([*:1])[*:2]; Propyl = CCC*
Listed here: molecules with reported IC50 for human FAP (Homo sapiens, UniProt Q12884).
Give the value in nM but do not write nM after it.

Worked cases, answers included:
{"MOLECULE": "CCCCC[C@@H]1NC(=O)[C@H](Cc2ccc(O)cc2)NC(=O)[C@H](Cc2ccccc2)N(C)C(=O)CNC(=O)[C@H](CCCCN)NC(=O)[C@H]2CCCN2C(=O)[C@H](CC(=O)O)NC(=O)[C@H](Cc2ccc(O)cc2)NC(=O)CNC(=O)[C@H](Cc2c[nH]c3ccccc23)NC1=O [Example A53, TFA salt] (cyclo([Ahp(2)]WGYD[dP]KG[NMeF]Y))", "SUBJECT OF TEST": "human FAP (Homo sapiens, UniProt Q12884)", "IC50 (nM)": 0.4}
{"MOLECULE": "CCCCC[C@@H]1NC(=O)[C@H](Cc2ccc(OCCN)cc2)NC(=O)[C@H](Cc2ccccc2)N(C)C(=O)CNC(=O)CNC(=O)[C@H]2CCCN2C(=O)[C@H](CC(=O)O)NC(=O)[C@H](Cc2ccc(O)cc2)NC(=O)CNC(=O)[C@H](Cc2c[nH]c3ccccc23)NC1=O [Example A59, TFA salt] (cyclo([AEF][Ahp(2)]WGYD[dP]GG[NMeF]))", "SUBJECT OF TEST": "human FAP (Homo sapiens, UniProt Q12884)", "IC50 (nM)": 0.136}

*Q* Give IC50 only, for CCCOCC[C@@H]1NC(=O)[C@H](Cc2ccc(CNC(=O)COCCOCCNC(=O)CCCCC3(N(CC(=O)O)CC(=O)O)CN(CC(=O)O)CCN(CC(=O)O)C3)cc2)NC(=O)[C@H](Cc2ccccc2)N(C)C(=O)CNC(=O)CNC(=O)[C@H]2CCCN2C(=O)[C@H](CC(=O)O)NC(=O)[C@H](CCCCNC(=O)N2CCN(CC(=O)O)CC2)NC(=O)CNC(=O)[C@H](Cc2c[nH]c3ccccc23)NC1=O [Example B31] (cyclo(D[dP]GG[NMeF][Phe(4-CH2NH2)]([AEEA-AAZTA5])[hSer](Propyl)WGK([CO-Piperazinyl(4-CH2COOH)]))) , using human FAP (Homo sapiens, UniProt Q12884) data.
*A* 0.03

====

Target: human FAP (Homo sapiens)
Construct: the biotinylated His, Avi tag, human FAP (26-760, FAP-H82Q6); His; Avi tag (biotinylated); purchased AcroBiosystems FAP-H82Q6
Sequence (Q12884 26-760): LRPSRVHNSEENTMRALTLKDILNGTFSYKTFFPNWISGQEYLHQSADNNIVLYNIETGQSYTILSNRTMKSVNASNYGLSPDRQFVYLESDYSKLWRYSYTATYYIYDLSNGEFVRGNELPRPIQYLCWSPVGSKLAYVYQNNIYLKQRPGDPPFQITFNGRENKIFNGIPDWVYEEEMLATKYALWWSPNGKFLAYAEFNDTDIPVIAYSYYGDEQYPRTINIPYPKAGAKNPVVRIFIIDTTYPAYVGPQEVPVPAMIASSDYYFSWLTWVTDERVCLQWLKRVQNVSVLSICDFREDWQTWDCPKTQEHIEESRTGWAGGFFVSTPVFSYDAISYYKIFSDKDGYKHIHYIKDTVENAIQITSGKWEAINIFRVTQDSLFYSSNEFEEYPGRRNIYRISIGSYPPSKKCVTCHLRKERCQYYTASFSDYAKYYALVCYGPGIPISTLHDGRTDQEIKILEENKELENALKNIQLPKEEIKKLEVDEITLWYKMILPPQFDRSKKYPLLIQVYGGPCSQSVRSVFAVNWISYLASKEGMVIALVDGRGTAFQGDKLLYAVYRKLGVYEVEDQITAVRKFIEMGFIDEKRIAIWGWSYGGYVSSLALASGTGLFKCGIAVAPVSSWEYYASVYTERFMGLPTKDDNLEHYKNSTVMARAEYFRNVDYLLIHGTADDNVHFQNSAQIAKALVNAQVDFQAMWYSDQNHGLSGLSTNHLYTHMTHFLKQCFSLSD
Experiment: Enzymatic FAP competition assay (Z-Gly-Pro-AMC fluorescence), human FAP
Assay type: biochemical
Conditions: read-out: h. FAP, Enz., IC50
Starred links: 1 amine or outer side, 2 acyl side, 3 side chain; linkers in the order of their positions; H or OH if unused. Non-standard residues stand in square brackets, D forms with d. Primed or numbered codes have the meaning given here. *: point of attachment. F(4amPEG2NHDOTA-Lu) = lutetium complex of (S)-2,2',2''-(10-(1-(4-(2-amino-2-carboxyethyl)phenyl)-3,12-dioxo-5,8-dioxa-2,11-diazatridecan-13-yl)-1,4,7,10-tetraazacyclododecane-1,4,7-triyl)triacetic acid (Phe with 4-aminomethyl-PEG2-DOTA-Lu), O=C([O-])CN1CCN(CC(=O)[O-])CCN(CC(=O)NCCOCCOCC(=O)NCc2ccc(C[C@H](N[*:1])C(=O)[*:2])cc2)CCN(CC(=O)[O-])CC1.[Lu+3]; F(4amPEG2NHDOTA-Ga) = gallium complex of (S)-2,2',2''-(10-(1-(4-(2-amino-2-carboxyethyl)phenyl)-3,12-dioxo-5,8-dioxa-2,11-diazatridecan-13-yl)-1,4,7,10-tetraazacyclododecane-1,4,7-triyl)triacetic acid (Phe with 4-aminomethyl-PEG2-DOTA-Ga), O=C([O-])CN1CCN(CC(=O)[O-])CCN(CC(=O)NCCOCCOCC(=O)NCc2ccc(C[C@H](N[*:1])C(=O)[*:2])cc2)CCN(CC(=O)[O-])CC1.[Ga+3]; F(4amDOTA-Lu) = lutetium complex of (S)-2,2',2''-(10-(2-((4-(2-amino-2-carboxyethyl)benzyl)amino)-2-oxoethyl)-1,4,7,10-tetraazacyclododecane-1,4,7-triyl)triacetic acid (Phe with 4-aminomethyl-DOTA-Lu), O=C([O-])CN1CCN(CC(=O)[O-])CCN(CC(=O)NCc2ccc(C[C@H](N[*:1])C(=O)[*:2])cc2)CCN(CC(=O)[O-])CC1.[Lu+3]; COpipzaa = 4-(carboxymethyl)piperazine-1-carbonyl, O=C(O)CN1CCN(C(=O)*)CC1; F(4amPEG2NHDOTA-Ga)″ = Phe with 4-aminomethyl-PEG2-NH-DOTA, Ga complex; hS(Pr) = O-propyl-L-homoserine, CCCOCC[C@H](N[*:1])C(=O)[*:2]; NMeF = CN[C@@H](Cc1ccccc1)C(=O)O; Ahp(2) = CCCCC[C@H](N)C(=O)O
# IC50 values compiled below
Write down the numeric answer in nM and omit the unit.

*Q* For the substance Gly-Gly-NMePhe-F(4amPEG2NHDOTA-Lu)-hS(Pr)-Trp-Gly-K(COpipzaa)-Asp-D-Pro (cyclo(GG[NMeF][F(4amPEG2NHDOTA-Lu)][hS(Pr)]WGK(COpipzaa)D[dP]); also: Lu complex) [Example C2] , give its measured IC50 value.
*A* 0.009

*Q* Please look at this substance and report its IC50: Gly-Gly-NMePhe-F(4amPEG2NHDOTA-Ga)-Ahp-Trp-Gly-Tyr-Asp-D-Pro (cyclo(GG[NMeF][F(4amPEG2NHDOTA-Ga)][Ahp(2)]WGYD[dP]); also: Ga complex) [Example C49]
*A* 0.005

*Q* Query IC50 for Gly-Gly-NMePhe-F(4amDOTA-Lu)-Ahp-Trp-Gly-Tyr-Asp-D-Pro (cyclo(GG[NMeF][F(4amDOTA-Lu)][Ahp(2)]WGYD[dP]); also: Lu complex) [Example C16]
*A* 0.084

*Q* Tell me IC50 reported for Gly-Gly-NMePhe-F(4amPeG2NHDOTA-Ga)-Ahp-Trp-Gly-K(COpipzaa)-asp-D-Pro (cyclo(GG[NMeF][F(4amPEG2NHDOTA-Ga)″][Ahp(2)]WGK(COpipzaa)D[dP]); also: Ga in DOTA chelate) [Example C46]
*A* 0.012
